- Test system: M19-MEL
- testProtocol: NCI tumour cell line growth inhibition, 48 h
Active and inactive are the calls of the source. Cut-off read from the data, not from the text of the source: active = GI50 up to about 1.1 µM and inactive = higher.
Parameter call: string, one of active, inactive

COc1cc2c(cc1OC)c1c(OC)c(OC)cc3c1c1c2sc(=S)n1CC3 = inactive
Oc1cc(-c2cccc(F)c2)nc2cc3c(cc12)OCO3 = active
O=C(N/C(=C\c1cc(Cl)ccc1Cl)c1nc2ccccc2[nH]1)c1ccccc1 = inactive

Now consider a different compound.
Q: Tell me the recorded outcome of this test for NNC(=O)N/N=C1\C(=O)N(c2nccs2)C(=O)C(=O)C1c1nc2ccccc2s1 (centres undefined) .
Result: inactive

====

- Tested on: SF-268
- testProtocol: NCI tumour cell line growth inhibition, 48 h
Active and inactive are the calls of the source. No stated cut-off is given here; in the data, active = GI50 up to about 1.1 µM and inactive = higher.
Parameter call: string, one of 1 (yes) for active, 0 (no) for inactive

CNC(=O)CN(CC(=O)O)C(=O)NC = 0 (no)
C=CC/N=C1/N=C(CC(=O)OCC)CS1 = 0 (no)
CCOC(=O)c1c(N2CCCC2)[nH]c(=O)c(C(c2c(O)c(C(=O)OCC)c(N3CCCC3)[nH]c2=O)C(C)C)c1O = 0 (no)

Q: Please share the test call associated with C[N+](C)([O-])CCC=C1c2ccccc2CCc2ccccc21 .
Result: 0 (no)

Q: State the result this test recorded for Cc1cc(N(CCC#N)CCC#N)ccc1/C=C1N=C(/C=C\c2ccccc2)N(c2ccc(C(=O)O)cc2)C\1=O .
Result: 0 (no)

Q: Called result for Oc1cc(-c2cccc(F)c2)nc2cc3c(cc12)OCO3
Result: 1 (yes)

Q: I would be grateful if you could indicate the recorded call for O=C(/C=C/c1ccc(O)c(O)c1)OCCOC(=O)/C=C/c1ccc(O)c(O)c1 .
Result: 0 (no)

====

- Test system: ACHN
- testProtocol: NCI tumour cell line growth inhibition, 48 h
The source made the active and inactive calls. Rule as the data show it: active = GI50 up to about 1.1 µM and inactive = higher.
Provide the recorded GI50 for the entries that follow.

Completed entries (count: 5):
COc1ccc(C2C(Cl)C(=O)N2NC(=O)c2ccc(NC(C)=O)cc2)cc1OC (configuration not stated) = > 100 µM (inactive)
C=C1C(=O)O[C@@H]2[C@H]1C[C@H](I)[C@@]1(C)CC[C@H](O1)[C@](C)(I)CCCC(C)[C@@H]2O (some centres not stated) = 1.79 µM (inactive)
CC(=O)O[C@H]1C(=O)[C@@]2(C)[C@H]([C@H](OC(=O)c3ccccc3)[C@]3(O)C[C@H](OC(=O)[C@H](O)[C@@H](NC(=O)c4cccc(N=[N+]=[N-])c4)c4ccccc4)C(C)=C1C3(C)C)[C@]1(OC(C)=O)CO[C@@H]1C[C@@H]2O = 0.327 µM (active)
N#Cc1nc(C#N)n(S(=O)(=O)c2ccccc2)c1NS(=O)(=O)c1ccccc1 = > 100 µM (inactive)
C=CCOc1ccc(C2c3c(n[nH]c3O)CC(C)(O)C2C(=O)OC)cc1OC (configuration not stated) = > 100 µM (inactive)

Below is a list of compounds. For each, state its recorded GI50.
1. O=C1Nc2ccccc2C(=O)/C1=C/NC(=S)NC1CCCCC1
2. COc1cc(OC2OC(CO)C(O)C(O)C2O)c2c(c1)O[C@@H]1[C@H](O)Oc3cc(OC)c(OC)cc3[C@]1(O)C2=O (some centres not stated)

Result:
1. > 100 µM (inactive)
2. > 25 µM (inactive)
